- Test system: MDA-MB-231
- assay_overview: Induction of apoptosis in human MDA-MB-231 cells assessed as necrosis incubated for 48 hrs by annexin V and 7-AAD staining based flow cytometry analysis (reference value: 0.09%)
- Format: functional
Hi, to clarify the labels: yes (1) covers Activity from 10% upward, no (0) covers anything below 10%.

Given C[n+]1ccc(/C=C/c2cc3c(O)c(c2)Cc2cc(C(C)(C)C)cc(c2OCCCn2cc(CN4C(=O)C(=O)c5cc(Br)ccc54)nn2)Cc2cc(/C=C/c4cc[n+](C)cc4)cc(c2O)Cc2cc(C(C)(C)C)cc(c2OCCCn2cc(CN4C(=O)C(=O)c5cc(Br)ccc54)nn2)C3)cc1.[I-].[I-] , state whether its Activity is at least 10%.
yes (1)

Check if Activity >= 10% (inclusive). Item: Cc1ccc2c(c1)C(=O)C(=O)N2Cc1cn(CCCOc2c3cc(C(C)(C)C)cc2Cc2cc(/C=C/c4cc[n+](C)cc4)cc(c2O)Cc2cc(C(C)(C)C)cc(c2OCCCn2cc(CN4C(=O)C(=O)c5cc(C)ccc54)nn2)Cc2cc(/C=C/c4cc[n+](C)cc4)cc(c2O)C3)nn1.[I-].[I-]
yes (1)

Has C[n+]1ccc(/C=C/c2cc3c(O)c(c2)Cc2cc(C(C)(C)C)cc(c2OCCCn2cc(CN4C(=O)C(=O)c5ccccc54)nn2)Cc2cc(/C=C/c4cc[n+](C)cc4)cc(c2O)Cc2cc(C(C)(C)C)cc(c2OCCCn2cc(CN4C(=O)C(=O)c5ccccc54)nn2)C3)cc1.[I-].[I-] a recorded Activity greater than or equal to 10%?
no (0)

Is it the case that C[n+]1ccc(/C=C/c2cc3c(O)c(c2)Cc2cc(C(C)(C)C)cc(c2OCCCn2cc(CN4C(=O)C(=O)c5cc(I)ccc54)nn2)Cc2cc(/C=C/c4cc[n+](C)cc4)cc(c2O)Cc2cc(C(C)(C)C)cc(c2OCCCn2cc(CN4C(=O)C(=O)c5cc(I)ccc54)nn2)C3)cc1.[I-].[I-] has Activity reaching or exceeding 10%?
yes (1)

Please tell me: is the molecule C[n+]1ccc(/C=C/c2cc3c(O)c(c2)Cc2cc(C(C)(C)C)cc(c2OCCCn2cc(CN4C(=O)C(=O)c5cc(Cl)ccc54)nn2)Cc2cc(/C=C/c4cc[n+](C)cc4)cc(c2O)Cc2cc(C(C)(C)C)cc(c2OCCCn2cc(CN4C(=O)C(=O)c5cc(Cl)ccc54)nn2)C3)cc1.[I-].[I-] at or over 10% in terms of Activity?
yes (1)
